condition description: in n-propanol, 311.55 K
property name: solubility (mole fraction)

Inquiry: Quick one: give measured solubility (mole fraction) for `CC(=O)[C@@]12O[C@@H]1C[C@H]1[C@@H]3CCC4=CC(=O)CC[C@]4(C)[C@H]3CC[C@@]12C`
Reply text: 0.00623

====

condition description: in isopropanol, 296.65 K
property name: solubility (mole fraction)
Just the number, please, no unit after it.

Inquiry: Quick one: give measured solubility (mole fraction) for `CC(=O)[C@@]12O[C@@H]1C[C@H]1[C@@H]3CCC4=CC(=O)CC[C@]4(C)[C@H]3CC[C@@]12C`
Reply text: 0.00307

====

condition description: in n-propanol, 309.9 K
property name: solubility (mole fraction)
Just the number, please, no unit after it.

Inquiry: Quick one: give measured solubility (mole fraction) for `CC(=O)[C@@]12O[C@@H]1C[C@H]1[C@@H]3CCC4=CC(=O)CC[C@]4(C)[C@H]3[C@H](O)C[C@@]12C`
Reply text: 0.00125

====

condition description: in DMSO, 322.35 K
property name: solubility (mole fraction)
Just the number, please, no unit after it.

Inquiry: Quick one: give measured solubility (mole fraction) for `CC(=O)[C@@]12O[C@@H]1C[C@H]1[C@@H]3CCC4=CC(=O)CC[C@]4(C)[C@H]3CC[C@@]12C`
Reply text: 0.00756

====

condition description: in 1,4-dioxane, 325.05 K
property name: solubility (mole fraction)
Just the number, please, no unit after it.

Inquiry: Quick one: give measured solubility (mole fraction) for `CC(=O)[C@@]12O[C@@H]1C[C@H]1[C@@H]3CCC4=CC(=O)CC[C@]4(C)[C@H]3[C@H](O)C[C@@]12C`
Reply text: 0.00687

====

condition description: in n-propanol, 332.05 K
property name: solubility (mole fraction)

Inquiry: Quick one: give measured solubility (mole fraction) for `CC(=O)[C@@]12O[C@@H]1C[C@H]1[C@@H]3CCC4=CC(=O)CC[C@]4(C)[C@H]3CC[C@@]12C`
Reply text: 0.0143

====

condition description: in DMSO, 326.5 K
property name: solubility (mole fraction)

Inquiry: Quick one: give measured solubility (mole fraction) for `CC(=O)[C@@]12O[C@@H]1C[C@H]1[C@@H]3CCC4=CC(=O)CC[C@]4(C)[C@H]3CC[C@@]12C`
Reply text: 0.0087

====

condition description: in n-propanol, 300.5 K
property name: solubility (mole fraction)
Just the number, please, no unit after it.

Inquiry: Quick one: give measured solubility (mole fraction) for `CC(=O)[C@@]12O[C@@H]1C[C@H]1[C@@H]3CCC4=CC(=O)CC[C@]4(C)[C@H]3[C@H](O)C[C@@]12C`
Reply text: 0.000796

====

condition description: in DMSO, 329.55 K
property name: solubility (mole fraction)
Just the number, please, no unit after it.

Inquiry: Quick one: give measured solubility (mole fraction) for `CC(=O)[C@@]12O[C@@H]1C[C@H]1[C@@H]3CCC4=CC(=O)CC[C@]4(C)[C@H]3[C@H](O)C[C@@]12C`
Reply text: 0.0141

====

condition description: in isopropanol, 316.35 K
property name: solubility (mole fraction)
Just the number, please, no unit after it.

Inquiry: Quick one: give measured solubility (mole fraction) for `CC(=O)[C@@]12O[C@@H]1C[C@H]1[C@@H]3CCC4=CC(=O)CC[C@]4(C)[C@H]3[C@H](O)C[C@@]12C`
Reply text: 0.00147

====

condition description: in isopropanol, 322.95 K
property name: solubility (mole fraction)

Inquiry: Quick one: give measured solubility (mole fraction) for `CC(=O)[C@@]12O[C@@H]1C[C@H]1[C@@H]3CCC4=CC(=O)CC[C@]4(C)[C@H]3CC[C@@]12C`
Reply text: 0.00992

====

condition description: in DMSO, 334.9 K
property name: solubility (mole fraction)
Just the number, please, no unit after it.

Inquiry: Quick one: give measured solubility (mole fraction) for `CC(=O)[C@@]12O[C@@H]1C[C@H]1[C@@H]3CCC4=CC(=O)CC[C@]4(C)[C@H]3CC[C@@]12C`
Reply text: 0.0115

====

condition description: in n-propanol, 307.5 K
property name: solubility (mole fraction)
Just the number, please, no unit after it.

Inquiry: Quick one: give measured solubility (mole fraction) for `CC(=O)[C@@]12O[C@@H]1C[C@H]1[C@@H]3CCC4=CC(=O)CC[C@]4(C)[C@H]3CC[C@@]12C`
Reply text: 0.00524

====

condition description: in n-propanol, 299.15 K
property name: solubility (mole fraction)
Just the number, please, no unit after it.

Inquiry: Quick one: give measured solubility (mole fraction) for `CC(=O)[C@@]12O[C@@H]1C[C@H]1[C@@H]3CCC4=CC(=O)CC[C@]4(C)[C@H]3CC[C@@]12C`
Reply text: 0.00349

====

condition description: in 1,4-dioxane, 340.15 K
property name: solubility (mole fraction)
Just the number, please, no unit after it.

Inquiry: Quick one: give measured solubility (mole fraction) for `CC(=O)[C@@]12O[C@@H]1C[C@H]1[C@@H]3CCC4=CC(=O)CC[C@]4(C)[C@H]3[C@H](O)C[C@@]12C`
Reply text: 0.0105

====

condition description: in DMSO, 353.45 K
property name: solubility (mole fraction)
Just the number, please, no unit after it.

Inquiry: Quick one: give measured solubility (mole fraction) for `CC(=O)[C@@]12O[C@@H]1C[C@H]1[C@@H]3CCC4=CC(=O)CC[C@]4(C)[C@H]3CC[C@@]12C`
Reply text: 0.0223

====

condition description: in DMSO, 340.25 K
property name: solubility (mole fraction)
Just the number, please, no unit after it.

Inquiry: Quick one: give measured solubility (mole fraction) for `CC(=O)[C@@]12O[C@@H]1C[C@H]1[C@@H]3CCC4=CC(=O)CC[C@]4(C)[C@H]3[C@H](O)C[C@@]12C`
Reply text: 0.0196

====

condition description: in n-butanol, 320.75 K
property name: solubility (mole fraction)
Just the number, please, no unit after it.

Inquiry: Quick one: give measured solubility (mole fraction) for `CC(=O)[C@@]12O[C@@H]1C[C@H]1[C@@H]3CCC4=CC(=O)CC[C@]4(C)[C@H]3[C@H](O)C[C@@]12C`
Reply text: 0.00177

====

condition description: in isopropanol, 335.65 K
property name: solubility (mole fraction)
Just the number, please, no unit after it.

Inquiry: Quick one: give measured solubility (mole fraction) for `CC(=O)[C@@]12O[C@@H]1C[C@H]1[C@@H]3CCC4=CC(=O)CC[C@]4(C)[C@H]3[C@H](O)C[C@@]12C`
Reply text: 0.00368

====

condition description: in isopropanol, 323.85 K
property name: solubility (mole fraction)
Just the number, please, no unit after it.

Inquiry: Quick one: give measured solubility (mole fraction) for `CC(=O)[C@@]12O[C@@H]1C[C@H]1[C@@H]3CCC4=CC(=O)CC[C@]4(C)[C@H]3[C@H](O)C[C@@]12C`
Reply text: 0.00212

====

condition description: in DMSO, 319.05 K
property name: solubility (mole fraction)
Just the number, please, no unit after it.

Inquiry: Quick one: give measured solubility (mole fraction) for `CC(=O)[C@@]12O[C@@H]1C[C@H]1[C@@H]3CCC4=CC(=O)CC[C@]4(C)[C@H]3[C@H](O)C[C@@]12C`
Reply text: 0.00966

====

condition description: in isopropanol, 320.75 K
property name: solubility (mole fraction)
Just the number, please, no unit after it.

Inquiry: Quick one: give measured solubility (mole fraction) for `CC(=O)[C@@]12O[C@@H]1C[C@H]1[C@@H]3CCC4=CC(=O)CC[C@]4(C)[C@H]3[C@H](O)C[C@@]12C`
Reply text: 0.0019

====

condition description: in n-butanol, 324.35 K
property name: solubility (mole fraction)
Just the number, please, no unit after it.

Inquiry: Quick one: give measured solubility (mole fraction) for `CC(=O)[C@@]12O[C@@H]1C[C@H]1[C@@H]3CCC4=CC(=O)CC[C@]4(C)[C@H]3[C@H](O)C[C@@]12C`
Reply text: 0.00205

====

condition description: in DMSO, 301.3 K
property name: solubility (mole fraction)
Just the number, please, no unit after it.

Inquiry: Quick one: give measured solubility (mole fraction) for `CC(=O)[C@@]12O[C@@H]1C[C@H]1[C@@H]3CCC4=CC(=O)CC[C@]4(C)[C@H]3[C@H](O)C[C@@]12C`
Reply text: 0.00515

====

condition description: in DMSO, 339.15 K
property name: solubility (mole fraction)
Just the number, please, no unit after it.

Inquiry: Quick one: give measured solubility (mole fraction) for `CC(=O)[C@@]12O[C@@H]1C[C@H]1[C@@H]3CCC4=CC(=O)CC[C@]4(C)[C@H]3CC[C@@]12C`
Reply text: 0.0135

====

condition description: in n-butanol, 323.55 K
property name: solubility (mole fraction)
Just the number, please, no unit after it.

Inquiry: Quick one: give measured solubility (mole fraction) for `CC(=O)[C@@]12O[C@@H]1C[C@H]1[C@@H]3CCC4=CC(=O)CC[C@]4(C)[C@H]3CC[C@@]12C`
Reply text: 0.0109
